Molecular target: human GnRH receptor (Homo sapiens, UniProt P30968)
Construct: expressed in transfected cells; host or cells: CHO (Chinese Hamster Ovary) cells, membrane fraction
Sequence (P30968 1-328): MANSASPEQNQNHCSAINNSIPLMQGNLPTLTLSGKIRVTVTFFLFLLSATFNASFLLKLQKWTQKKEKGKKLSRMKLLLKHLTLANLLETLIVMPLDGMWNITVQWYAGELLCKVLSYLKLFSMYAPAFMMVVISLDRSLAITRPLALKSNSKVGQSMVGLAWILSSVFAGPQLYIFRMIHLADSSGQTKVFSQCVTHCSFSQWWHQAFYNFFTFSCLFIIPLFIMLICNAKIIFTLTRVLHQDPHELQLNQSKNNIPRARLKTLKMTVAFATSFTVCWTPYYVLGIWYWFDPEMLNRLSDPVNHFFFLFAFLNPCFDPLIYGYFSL
Assay: Test for inhibition of ^125 I-leuprorelin binding to human GnRH receptor
Details: membrane fraction of CHO cells expressing human GnRH receptors, 25° C., 60 minutes, read-out: Binding Inhibitory Activity (IC50, μM) for human GnRH receptor
Give IC50 for every item shown.
Return type: number; implicit unit µM.

**Q:** Please look up its IC50: O=C1C2=C(CCC2)C(=O)N1CC(=O)N1c2ccccc2N(Cc2ccccc2)C(=O)[C@H]2CCC[C@H]21 (relative stereo) [compound 176]
**A:** 2

**Q:** Dear colleague, I am looking for the recorded IC50 of the following compound: COc1cccc(CN2C(=O)C3CCCC3N(C(=O)CN3C(=O)c4ccccc4C3=O)c3ccccc32)c1 (stereo not drawn) [compound 111]
**A:** 4

**Q:** Which measured IC50 value corresponds to O=C1c2ccccc2C(=O)N1CC(=O)N1c2ccccc2N(Cc2cccnc2)C(=O)[C@H]2CCC[C@H]21 (relative stereo) [compound 119] ?
**A:** 10

**Q:** What does the record list as IC50 for O=C1CC(/C=C/c2ccccc2)Nc2ccccc2N1Cc1ccccc1 (stereo not drawn) [compound 36] ?
**A:** 2

**Q:** Recorded IC50 of O=C1C2=C(CCCC2)C(=O)N1CC(=O)N1c2ccccc2N(Cc2cccc3ccccc23)C(=O)[C@H]2CCC[C@H]21 (relative stereo) [compound 170] , please.
**A:** 0.6

**Q:** Using the record for O=C1c2ccccc2C(=O)N1CC(=O)N1c2ccccc2N(Cc2ccc([N+](=O)[O-])cc2)C(=O)[C@H]2CCC[C@H]21 (relative stereo) [compound 195] , report its IC50.
**A:** 0.5

###

Target: human GnRH receptor (Homo sapiens, UniProt P30968)
Construct: expressed in transfected cells; host or cells: CHO (Chinese Hamster Ovary) cells, membrane fraction
Assay: Test for inhibition of ^125 I-leuprorelin binding to human GnRH receptor
Conditions: membrane fraction of CHO cells expressing human GnRH receptors, 25° C., 60 minutes, read-out: Binding Inhibitory Activity (IC50, μM) for human GnRH receptor
Binarize IC50 at 10 µM; below is Satisfied, at or above is Not satisfied.

**Q:** For this compound, is IC50 lower than 10 µM? O=C1Cc2ccccc2C(=O)N1CC(=O)N1c2ccccc2N(Cc2ccccc2)C(=O)[C@H]2CCC[C@H]21 (relative stereo)
**A:** Satisfied

**Q:** Input O=C1[C@H]2CC=CC[C@H]2C(=O)N1CC(=O)N1c2ccccc2N(Cc2ccccc2)C(=O)[C@H]2CCC[C@H]21 (relative stereo) ; condition: IC50 strictly below 10 µM. Does it hold?
**A:** Satisfied

**Q:** Does O=C1[C@H]2CCC[C@H]2N(C(=O)CNCc2ccccc2)c2ccccc2N1Cc1ccccc1 (relative stereo) have IC50 strictly under 10 µM?
**A:** Not satisfied

**Q:** Would you kindly verify if IC50 of O=C1c2ccncc2C(=O)N1CC(=O)N1c2ccccc2N(Cc2ccccc2)C(=O)[C@H]2CCC[C@H]21 (relative stereo) is strictly less than 10 µM?
**A:** Not satisfied

**Q:** Field: below-cutoff. Rule: recorded IC50 strictly less than 10 µM. Subject: CC(=O)N(CC(=O)N1c2ccccc2N(Cc2ccccc2)C(=O)[C@H]2CCC[C@H]21)C(=O)c1ccccc1 (relative stereo)
**A:** Satisfied

**Q:** Find out if reported IC50 for O=C(c1ccccc1)N(CC(=O)N1c2ccccc2N(Cc2ccccc2)C(=O)[C@H]2CCC[C@H]21)Cc1ccccc1 (relative stereo) is less than 10 µM
**A:** Not satisfied
